Just for reference, patent US20120165339A1 is where these values come from.

target: OX2 (Homo sapiens, UniProt O43614); test: Orexin-receptor binding ability, [125I]-OX-A, CHO cell membranes expressing OX2; parameters: expressed in transfected cells; host or cells: CHO cells (membrane preparation); conditions: membranes of recombinant CHO cells, 0.2 nM [125I]-OX-A tracer; read-out: OX2 (IC50)
Sequence (O43614 whole entry): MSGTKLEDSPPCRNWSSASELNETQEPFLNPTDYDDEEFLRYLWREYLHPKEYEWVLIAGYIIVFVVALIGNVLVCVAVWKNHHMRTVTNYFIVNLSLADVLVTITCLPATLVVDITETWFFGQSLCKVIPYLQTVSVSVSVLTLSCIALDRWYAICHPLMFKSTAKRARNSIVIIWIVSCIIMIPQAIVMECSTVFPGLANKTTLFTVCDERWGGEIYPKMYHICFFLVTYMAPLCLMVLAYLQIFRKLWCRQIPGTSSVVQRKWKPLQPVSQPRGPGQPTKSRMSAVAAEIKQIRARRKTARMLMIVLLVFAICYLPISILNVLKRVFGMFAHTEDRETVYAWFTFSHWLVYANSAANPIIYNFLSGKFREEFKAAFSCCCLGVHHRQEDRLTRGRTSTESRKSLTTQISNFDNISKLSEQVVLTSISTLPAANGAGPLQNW
MEASUREMENT_NAME: IC50 (nM)

>>> recorded_number("COc1ccc(OCC2(c3ccccc3)CC2C(=O)Nc2nc(C)cs2)cc1OC (stereo not drawn)")
14

[A] COc1ccc(OCC2(c3ccccc3)CC2C(=O)Nc2ccccc2)cc1OC (stereo not drawn)
[B] CCn1cc(OCC2(c3ccccc3)CC2C(=O)Nc2ccc(C#N)cn2)ccc1=O (stereo not drawn)
QUERY: Pick the one with the larger IC50: A vs B // output: label of the selected item
RESULT: B

---

molecular target: OX2 (Homo sapiens); assay: Orexin-receptor binding ability, [125I]-OX-A, CHO cell membranes expressing OX2; set-up: expressed in transfected cells; host or cells: CHO cells (membrane preparation); conditions: membranes of recombinant CHO cells, 0.2 nM [125I]-OX-A tracer; read-out: OX2 (IC50)
pIC50: −log10 of the molar value.
MEASUREMENT_NAME: pIC50

>>> recorded_number("Cc1nc(C2CC2)nn1CC[C@@]1(c2ccccc2)C[C@H]1C(=O)Nc1ccc(C#N)cn1")
7.64

[1] COc1ccc(OCC2(c3ccccc3)CC2C(=O)Nc2cccc(C)n2)cc1OC (centres unmarked)
[2] CCn1cc(OC[C@@]2(c3ccccc3)C[C@H]2C(=O)Nc2ccccn2)c(C)n1
QUERY: Among 1 and 2 , which shows a numerically higher pIC50 result? Please identify the chosen entry by its label.
RESULT: 1

[A] CCn1cc(OCC2(c3ccccc3)CC2C(=O)Nc2ccc(Cl)cn2)ccc1=O (centres unmarked)
[B] CCn1nc(C)c(OC[C@@]2(c3ccccc3)C[C@H]2C(=O)Nc2ccc(F)cc2)cc1=O
QUERY: When the recorded pIC50 values are compared, which is smaller: that of A or that of B ? Answer by quoting the chosen item's label.
RESULT: B
(B: 7.26, A: 8.52)

---

Target: UniProt:O43613
Sequence (O43613 1-425): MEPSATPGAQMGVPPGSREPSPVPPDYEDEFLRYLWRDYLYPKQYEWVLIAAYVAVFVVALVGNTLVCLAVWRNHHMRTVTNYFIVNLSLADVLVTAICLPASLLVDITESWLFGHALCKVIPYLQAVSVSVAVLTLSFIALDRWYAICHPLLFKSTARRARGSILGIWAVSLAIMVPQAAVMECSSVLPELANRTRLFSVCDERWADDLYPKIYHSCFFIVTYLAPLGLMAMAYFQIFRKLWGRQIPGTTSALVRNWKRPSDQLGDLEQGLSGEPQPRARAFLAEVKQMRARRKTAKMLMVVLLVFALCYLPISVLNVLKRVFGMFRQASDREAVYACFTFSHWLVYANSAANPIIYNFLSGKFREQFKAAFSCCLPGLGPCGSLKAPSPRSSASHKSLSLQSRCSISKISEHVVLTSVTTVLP
Assay: Antagonism PLAP reporter assay, HEK-293 cells expressing human OX1
Conditions: HEK-293, 1 nM human OX-A; IC50 converted to Ki by Cheng-Prusoff equation
pKi: −log10 of the molar value.
Documented pKi across a set of compounds

>>> result("COc1cc(F)c(OCC2(c3ccccc3)CC2C(=O)Nc2ccccn2)cc1OC (centres unmarked)")
6.47
>>> result("COc1ccc(CCC2(c3ccccc3)CC2C(=O)Nc2ccccn2)cc1OC (centres unmarked)")
"< 6.09"
>>> result("CCn1nc(C)c(Cl)c1OCC1(c2ccccc2)CC1C(=O)Nc1ccc(Cl)cn1 (centres unmarked)")
"< 6.09"
>>> result("COc1ccc(OCC2(c3ccccc3)CC2C(=O)Nc2ccncc2Cl)cc1OC (centres unmarked)")
"< 6.09"
>>> result("COc1ccc(OCC2(c3ccccc3)CC2C(=O)Nc2ccncc2C(F)(F)F)cc1OC (centres unmarked)")
"< 6.09"
>>> result("CCn1nc(C)cc1OCC1(c2ccccc2)CC1C(=O)Nc1ccc(F)cn1 (centres unmarked)")
"< 6.33"
>>> result("COc1ccc(OCC2(c3ccccc3)CC2C(=O)Nc2cncc(F)c2)cc1OC (centres unmarked)")
"< 6.09"
>>> result("CCn1cc(OCC2(c3ccccc3)CC2C(=O)Nc2ccc(F)cn2)c(C)n1 (centres unmarked)")
6.56
>>> result("CCn1nc(C)c(Cl)c1OCC1(c2ccccc2)CC1C(=O)Nc1ccc(F)cn1 (centres unmarked)")
"< 6.33"
>>> result("CCc1nc(Cl)cn1CCC1(c2ccccc2)CC1C(=O)Nc1ccc(C#N)cn1 (centres unmarked)")
"< 6.33"

QUERY: Bench note: what pKi did COc1ccc(OCC2(c3ccccc3)CC2C(=O)Nc2cc(C)no2)cc1OC (centres unmarked) show?
RESULT: < 6.09
